Target: Tyrosine-protein phosphatase non-receptor type 5 (Homo sapiens)
Assay: STEP phosphatase inhibitors, primary screen, biochemical, fluorescence intensity, uHTS (AID 588621);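 also: 0% = DMSO with enzyme and substrate and 100% = substrate only without enzyme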
Settings: recombinant STEP, OMFP fluorogenic substrate, at 20 µM, hits give high values
Among all 360,000 compounds or so, about 890 (0.25%) were called active. The entries come from a sample that favours actives as a whole.
Quantity Name: inhibition (%)

INSERT INTO assay_data (compound, quantity_name, value_units, value_reported) VALUES
  ('O=C1OCCC1=COCCCCOC=C1CCOC1=O', 'inhibition', '%', 0.1),
  ('COCCCNC(=O)[C@H]1N2C(=O)c3ccccc3C2SC1(C)C (stereo partly drawn)', 'inhibition', '%', 0.9),
  ('C=CCc1ccccc1OCC(O)CN1CCN(CCO)CC1 (stereo not drawn)', 'inhibition', '%', -0.9),
  ('C/C(=N\Nc1ccccc1)c1cccs1', 'inhibition', '%', -1.1),
  ('CCO[C@H]1OC(C(=O)N2CCCCCCC2)=C[C@@H](c2ccc(C(F)(F)F)cc2)[C@@H]1CCCO', 'inhibition', '%', 0.1),
  ('O=C(Nc1cccnc1)c1ccc(Cl)cc1[N+](=O)[O-]', 'inhibition', '%', 0.9),
  ('O=C(COC(=O)c1cc([N+](=O)[O-])ccc1NCc1ccccc1)NC1CCCCC1', 'inhibition', '%', 0.9),
  ('S=C(c1ccc(-c2ccccc2)o1)N1CCCCC1', 'inhibition', '%', 10),
  ('O=C(CCN1C(=O)c2ccncc2C1=O)Nc1cc(F)ccc1F', 'inhibition', '%', -2.7),
  ('OCCN1CCN(C(=S)c2ccc(-c3ccccc3)cc2)CC1', 'inhibition', '%', 92.5),
  ('CCCS(=O)(=O)N1CCN=C1SCc1cccc(F)c1', 'inhibition', '%', 0.3),
  ('O=C(Nc1cccnc1)c1cc2cc(Br)ccc2oc1=O', 'inhibition', '%', 86.4),
  ('COc1ccc2oc(=N)c(C(=O)Nc3ccc(Br)cc3)cc2c1', 'inhibition', '%', -1.8);

These data points were gathered from PubChem BioAssay AID588621.
